- Tested on: NCI-H596
- Method description: % viability in DMSO, miRNA mimic relative to NTC in DMSO; higher = less cytotoxic
- Conditions: drug used in drug arm: paclitaxel 6 uM; treatment: DMSO
Threshold-based label: % viability in DMSO under 40% gives fulfilled, % viability in DMSO not under 40% gives not fulfilled.

            sequence_input  assigned_category
0   UCUACAAAGGAAAGCGCUUUCU      not fulfilled
1   CAAAAGUAAUUGUGGAUUUUGU      not fulfilled
2   AAAAGUAAUUGUGGUUUUUGCC      not fulfilled
3   UAGGUAGUUUCAUGUUGUUGGG          fulfilled
4  AAGUGCCGCCAUCUUUUGAGUGU          fulfilled
5    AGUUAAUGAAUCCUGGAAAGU          fulfilled
6  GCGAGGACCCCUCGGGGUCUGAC      not fulfilled
7   AACGCCAUUAUCACACUAAAUA      not fulfilled
